# %Inh per entry
test system: CAMK2G; conditions: concentration: 1 μM, replicates: in singlicate; n = 1;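 further: KINOMEscan kinase panel screen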
ENDPOINT_LABEL: %Inh (%)

| COMPOUND | TARGET_SYSTEM | UNITS_TEXT | ENDPOINT_VALUE |
| --- | --- | --- | --- |
| O=C(Nc1cccc(-c2nn3ncccc3c2-c2ccnc(Nc3cccc(C(F)(F)F)c3)n2)c1)c1c(F)cccc1F [GSK299495] | CAMK2G | % | 11 |
| Cc1cccc(-c2nc(-c3ccc(S(C)(=O)=O)cc3)sc2-c2ccncc2)c1 | CAMK2G | % | 5 |
| COc1cc(Nc2nccc(N3CCC(NC(=O)c4cccc(NC(C)=O)c4)C3)n2)cc(OC)c1OC (stereo not drawn) [GSK1379754] | CAMK2G | % | 21 |
| CC(=O)Nc1ccc(COc2ccc(Nc3ccnc4cc(-c5ccccn5)ccc34)cc2)cc1.Cl [GW440148] | CAMK2G | % | 21 |
| O=C(c1ccc(-c2cc(-c3c[nH]nc3-c3ccccn3)ccn2)cc1)N1CCOCC1 [GW812171] | CAMK2G | % | 0 |
| CCc1ccnc(/C=C/c2n[nH]c3cc(Sc4ccccc4C(=O)NC)ccc23)c1 | CAMK2G | % | 18 |
| O=C1Cc2cc(Nc3nc(NCc4cccc(S(=O)(=O)C(F)(F)F)c4)ncc3C(F)(F)F)ccc2N1 | CAMK2G | % | 8 |
| COc1cc2c(cc1OCCN1CCN(C)CC1)ncc1c3ccc(C#N)cc3[nH]c21 | CAMK2G | % | 86 |
| COc1ccc(COc2cc(-n3cnc4ccccc43)sc2C(N)=O)cc1 [GSK1024304] | CAMK2G | % | 23 |
| Fc1ccc(-c2ncn(CCCN3CCOCC3)c2-c2cccnc2)cc1 [SB-211743] | CAMK2G | % | 0 |
| N#Cc1ccc(-c2cc(-c3c[nH]nc3-c3ccccn3)ccn2)cc1 [GW693028] | CAMK2G | % | 13 |
| CNc1ncnc2[nH]ncc12 [SKF-18355] | CAMK2G | % | 0 |
| CCCCCc1nc2c(N)ncnc2n1CCCCC [SKF-97255] | CAMK2G | % | 0 |
| NS(=O)(=O)c1cccc(-c2ccc3nccc(-c4cccc(S(N)(=O)=O)c4)c3c2)c1 [GW867253] | CAMK2G | % | 0 |
| COc1ccc(Nc2nccc(N3CCC(NC(=O)Nc4cc(C)ccc4C)C3)n2)cc1 (stereo not drawn) [GSK1379741] | CAMK2G | % | 0 |
| c1ccc(-c2cc(-c3c[nH]nc3-c3ccccn3)ccn2)cc1 [GW576604] | CAMK2G | % | 30 |
| CN1c2ccc(NCc3ccc(F)cc3)cc2-c2c(cnn2C)S1(=O)=O | CAMK2G | % | 15 |
| O=C(NCCNc1ccnc(Nc2ccc(F)cc2)n1)Nc1ccccc1F [GSK1379880] | CAMK2G | % | 0 |
